# STUDY TARGET: CDK7/cyclin H/MAT1 (Homo sapiens)
# Sequence (P50613 whole entry): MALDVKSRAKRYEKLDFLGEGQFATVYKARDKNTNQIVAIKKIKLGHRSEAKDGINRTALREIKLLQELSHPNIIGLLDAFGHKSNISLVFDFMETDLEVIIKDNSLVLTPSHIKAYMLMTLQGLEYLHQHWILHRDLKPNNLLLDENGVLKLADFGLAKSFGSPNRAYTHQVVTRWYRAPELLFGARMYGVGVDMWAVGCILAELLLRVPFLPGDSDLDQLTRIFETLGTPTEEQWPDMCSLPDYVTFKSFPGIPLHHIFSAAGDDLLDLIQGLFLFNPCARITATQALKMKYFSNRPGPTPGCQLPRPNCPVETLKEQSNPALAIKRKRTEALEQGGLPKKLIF
# Sequence (P51946 whole entry partner): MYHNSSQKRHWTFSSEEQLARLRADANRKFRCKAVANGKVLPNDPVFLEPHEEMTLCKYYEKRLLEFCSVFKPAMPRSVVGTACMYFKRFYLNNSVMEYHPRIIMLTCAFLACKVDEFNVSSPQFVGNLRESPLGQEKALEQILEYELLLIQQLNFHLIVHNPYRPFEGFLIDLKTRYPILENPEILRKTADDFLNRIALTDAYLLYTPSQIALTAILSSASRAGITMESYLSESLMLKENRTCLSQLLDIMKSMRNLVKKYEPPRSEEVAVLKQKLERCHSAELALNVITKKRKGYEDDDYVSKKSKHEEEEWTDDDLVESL
# Sequence (P51948 whole entry partner): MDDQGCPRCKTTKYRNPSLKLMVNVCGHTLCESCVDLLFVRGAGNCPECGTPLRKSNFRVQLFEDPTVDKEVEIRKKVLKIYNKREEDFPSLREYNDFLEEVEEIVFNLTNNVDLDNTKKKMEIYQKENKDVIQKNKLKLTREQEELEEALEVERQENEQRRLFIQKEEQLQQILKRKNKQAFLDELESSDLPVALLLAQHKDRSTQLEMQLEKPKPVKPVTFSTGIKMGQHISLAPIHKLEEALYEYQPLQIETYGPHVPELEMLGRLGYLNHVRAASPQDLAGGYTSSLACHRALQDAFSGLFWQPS
# METHOD SUMMARY: EMD Millipore (Eurofins) CDK panel
# RUN CONDITIONS: EMD Millipore screening panel, N = 1
ENDPOINT NAME: IC50 (nM)
I only need the number, in nM, no unit after it.

Sample `CN(C)CCOc1ccc(Nc2cc(-n3cnc4ccccc43)ncn2)nc1` , system: CDK7/cyclin H/MAT1 (Homo sapiens). Its IC50 is 1100

* * *

# STUDY TARGET: CDK1/cyclin B (Homo sapiens)
# Sequence (P06493 whole entry): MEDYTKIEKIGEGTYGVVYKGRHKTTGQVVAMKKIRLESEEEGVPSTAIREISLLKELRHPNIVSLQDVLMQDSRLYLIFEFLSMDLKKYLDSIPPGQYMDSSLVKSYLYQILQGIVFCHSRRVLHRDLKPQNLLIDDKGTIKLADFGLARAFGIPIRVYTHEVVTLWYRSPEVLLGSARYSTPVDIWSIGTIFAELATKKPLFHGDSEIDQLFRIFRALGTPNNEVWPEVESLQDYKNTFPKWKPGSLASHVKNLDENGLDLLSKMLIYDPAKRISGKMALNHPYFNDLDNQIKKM
# Sequence (P14635 whole entry partner): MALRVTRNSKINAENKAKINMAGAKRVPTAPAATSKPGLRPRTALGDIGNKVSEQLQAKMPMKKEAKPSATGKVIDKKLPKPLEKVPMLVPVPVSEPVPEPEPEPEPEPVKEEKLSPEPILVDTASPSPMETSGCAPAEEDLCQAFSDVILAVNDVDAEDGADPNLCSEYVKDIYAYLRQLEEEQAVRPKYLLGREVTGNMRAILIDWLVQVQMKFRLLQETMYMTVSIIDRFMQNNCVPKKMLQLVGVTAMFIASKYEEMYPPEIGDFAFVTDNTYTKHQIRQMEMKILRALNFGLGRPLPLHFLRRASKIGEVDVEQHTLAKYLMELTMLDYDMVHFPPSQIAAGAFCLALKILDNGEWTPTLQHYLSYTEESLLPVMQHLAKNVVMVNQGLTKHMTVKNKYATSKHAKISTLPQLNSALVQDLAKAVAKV
# METHOD SUMMARY: EMD Millipore (Eurofins) CDK panel
# RUN CONDITIONS: read-out: CDK1/cyclin B IC50; EMD Millipore screening panel, N = 1
ENDPOINT NAME: IC50 (nM)
I only need the number, in nM, no unit after it.

Sample CN(C)CCOc1ccc(Nc2cc(-n3cnc4ccccc43)ncn2)nc1 [Compound 3] , system: CDK1/cyclin B (Homo sapiens). Its IC50 is 1800
